Molecular target: JAK1 (Homo sapiens)
Sequence (P23458 whole entry): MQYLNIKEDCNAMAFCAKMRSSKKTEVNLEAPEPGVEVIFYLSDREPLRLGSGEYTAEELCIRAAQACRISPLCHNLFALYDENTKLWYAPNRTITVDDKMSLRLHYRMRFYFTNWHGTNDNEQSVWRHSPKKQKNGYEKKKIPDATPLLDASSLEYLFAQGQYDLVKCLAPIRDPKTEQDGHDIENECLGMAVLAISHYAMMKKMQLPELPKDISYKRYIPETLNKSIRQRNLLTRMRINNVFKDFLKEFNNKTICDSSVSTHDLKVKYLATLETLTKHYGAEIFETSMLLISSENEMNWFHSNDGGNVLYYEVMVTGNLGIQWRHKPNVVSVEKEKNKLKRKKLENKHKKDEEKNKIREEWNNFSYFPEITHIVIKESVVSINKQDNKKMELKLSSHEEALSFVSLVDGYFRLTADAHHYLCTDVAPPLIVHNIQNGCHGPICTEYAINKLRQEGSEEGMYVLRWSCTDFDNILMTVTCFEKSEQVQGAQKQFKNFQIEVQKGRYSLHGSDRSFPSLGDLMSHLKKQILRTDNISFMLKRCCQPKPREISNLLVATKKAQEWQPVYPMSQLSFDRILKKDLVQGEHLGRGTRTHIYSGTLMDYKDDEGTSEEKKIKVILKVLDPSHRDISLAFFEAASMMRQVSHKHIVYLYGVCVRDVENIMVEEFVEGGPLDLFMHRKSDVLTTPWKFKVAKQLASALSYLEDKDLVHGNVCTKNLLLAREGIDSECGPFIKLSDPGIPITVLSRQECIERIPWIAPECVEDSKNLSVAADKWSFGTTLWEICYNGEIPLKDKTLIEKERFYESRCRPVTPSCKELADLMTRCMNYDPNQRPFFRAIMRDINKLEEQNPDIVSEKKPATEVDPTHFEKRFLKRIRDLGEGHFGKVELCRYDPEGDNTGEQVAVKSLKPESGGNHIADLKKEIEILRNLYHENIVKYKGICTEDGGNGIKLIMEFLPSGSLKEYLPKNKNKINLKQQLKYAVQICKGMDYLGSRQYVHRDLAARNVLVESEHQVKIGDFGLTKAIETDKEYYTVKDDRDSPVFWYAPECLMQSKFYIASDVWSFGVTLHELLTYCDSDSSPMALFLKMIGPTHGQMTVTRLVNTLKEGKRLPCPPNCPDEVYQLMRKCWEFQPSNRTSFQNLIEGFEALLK
Test: radiometric KinaseProfiler kinase assay, […] ATP
Type: biochemical
measured_property: IC50 (nM)
Answer format: numeric, nM implied, no suffix.

Problem: What value of IC50 has been recorded for this entry: CC[C@H]1CN2CCc3cc(OC)c(OC)cc3[C@@H]2C[C@@H]1C[C@H]1NCCc2c1[nH]c1ccc(O)cc21
Result: 69.5

----------
Biological target: TYK2 (Homo sapiens)
Sequence (P29597 whole entry): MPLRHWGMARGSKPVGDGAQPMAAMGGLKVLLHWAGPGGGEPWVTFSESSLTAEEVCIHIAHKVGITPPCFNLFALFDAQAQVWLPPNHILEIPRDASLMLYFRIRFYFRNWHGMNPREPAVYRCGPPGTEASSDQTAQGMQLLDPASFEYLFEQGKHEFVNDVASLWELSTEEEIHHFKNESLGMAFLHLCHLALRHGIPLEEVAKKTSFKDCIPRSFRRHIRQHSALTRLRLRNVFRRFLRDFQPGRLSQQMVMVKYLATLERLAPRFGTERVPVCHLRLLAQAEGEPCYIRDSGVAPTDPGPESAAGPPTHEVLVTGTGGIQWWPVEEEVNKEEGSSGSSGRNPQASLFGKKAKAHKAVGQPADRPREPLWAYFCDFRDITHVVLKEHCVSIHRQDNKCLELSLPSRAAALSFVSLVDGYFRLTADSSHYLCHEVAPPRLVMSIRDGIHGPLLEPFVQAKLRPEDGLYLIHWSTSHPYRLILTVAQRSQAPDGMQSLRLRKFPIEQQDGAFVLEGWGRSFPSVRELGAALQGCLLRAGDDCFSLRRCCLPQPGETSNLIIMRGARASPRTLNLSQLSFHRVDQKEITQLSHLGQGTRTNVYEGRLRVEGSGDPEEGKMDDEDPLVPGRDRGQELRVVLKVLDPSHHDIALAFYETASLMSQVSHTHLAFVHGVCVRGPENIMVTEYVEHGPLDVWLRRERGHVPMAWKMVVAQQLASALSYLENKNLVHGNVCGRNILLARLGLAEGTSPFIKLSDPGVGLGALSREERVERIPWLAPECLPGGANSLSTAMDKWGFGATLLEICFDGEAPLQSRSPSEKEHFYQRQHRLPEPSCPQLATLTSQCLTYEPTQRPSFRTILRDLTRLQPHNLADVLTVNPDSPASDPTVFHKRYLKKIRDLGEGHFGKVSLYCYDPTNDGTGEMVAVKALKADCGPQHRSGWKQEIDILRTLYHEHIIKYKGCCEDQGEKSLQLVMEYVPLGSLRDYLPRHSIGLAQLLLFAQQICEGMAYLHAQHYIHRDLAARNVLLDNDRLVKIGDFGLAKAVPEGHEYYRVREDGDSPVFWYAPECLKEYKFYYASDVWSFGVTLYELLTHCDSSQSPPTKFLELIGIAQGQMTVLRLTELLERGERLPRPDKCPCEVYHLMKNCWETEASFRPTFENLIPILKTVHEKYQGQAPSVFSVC
measured_property: pIC50
On this scale, pIC50 is minus log10 of a concentration expressed in M (mol/L).

Problem: What value of pIC50 has been recorded for this entry: CC[C@H]1CN2CCc3cc(OC)c(OC)cc3[C@@H]2C[C@@H]1C[C@H]1NCCc2c1[nH]c1ccc(O)cc21
Result: 7.12

----------
measured_property: IC50 (nM)
Answer format: numeric, nM implied, no suffix.

Problem: JAK2 (Homo sapiens, UniProt O60674) / IC50 / CC[C@H]1CN2CCc3cc(OC)c(OC)cc3[C@@H]2C[C@@H]1C[C@H]1NCCc2c1[nH]c1ccc(O)cc21 : value?
Result: 84.9

----------
Target: JAK3 (Homo sapiens, UniProt P52333)
Sequence (P52333 1-1124): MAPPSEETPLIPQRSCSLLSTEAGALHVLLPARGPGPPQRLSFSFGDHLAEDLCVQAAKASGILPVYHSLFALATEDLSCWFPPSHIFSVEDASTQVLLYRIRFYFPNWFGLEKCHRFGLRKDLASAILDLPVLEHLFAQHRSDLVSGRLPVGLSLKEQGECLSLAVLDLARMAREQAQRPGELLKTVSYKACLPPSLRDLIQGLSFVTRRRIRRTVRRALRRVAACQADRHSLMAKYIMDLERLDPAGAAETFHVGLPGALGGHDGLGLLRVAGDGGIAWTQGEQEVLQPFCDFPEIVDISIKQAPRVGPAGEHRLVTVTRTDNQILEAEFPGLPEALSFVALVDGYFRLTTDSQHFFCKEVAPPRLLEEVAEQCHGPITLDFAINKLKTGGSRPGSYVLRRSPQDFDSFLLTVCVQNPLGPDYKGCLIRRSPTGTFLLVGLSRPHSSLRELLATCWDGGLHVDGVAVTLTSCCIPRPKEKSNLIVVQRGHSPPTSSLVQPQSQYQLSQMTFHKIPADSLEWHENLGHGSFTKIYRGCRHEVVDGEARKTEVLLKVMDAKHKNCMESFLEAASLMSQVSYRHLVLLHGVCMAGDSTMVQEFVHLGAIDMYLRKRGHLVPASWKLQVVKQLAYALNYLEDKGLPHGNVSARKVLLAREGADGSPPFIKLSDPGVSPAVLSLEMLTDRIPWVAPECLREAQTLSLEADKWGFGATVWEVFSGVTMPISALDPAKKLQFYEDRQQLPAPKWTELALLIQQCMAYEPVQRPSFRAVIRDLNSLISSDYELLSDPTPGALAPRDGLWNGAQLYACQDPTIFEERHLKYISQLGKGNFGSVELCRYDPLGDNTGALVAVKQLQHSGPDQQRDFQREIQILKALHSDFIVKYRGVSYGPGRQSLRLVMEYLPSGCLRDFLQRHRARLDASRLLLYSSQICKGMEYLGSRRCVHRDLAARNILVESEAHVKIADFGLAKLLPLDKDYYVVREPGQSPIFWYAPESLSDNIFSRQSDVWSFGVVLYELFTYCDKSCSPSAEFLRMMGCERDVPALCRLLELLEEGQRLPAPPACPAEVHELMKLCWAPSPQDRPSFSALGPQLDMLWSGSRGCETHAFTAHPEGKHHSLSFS
measured_property: Ki
Record the result as number plus unit.

Problem: What value of Ki has been recorded for this entry: CC[C@H]1CN2CCc3cc(OC)c(OC)cc3[C@@H]2C[C@@H]1C[C@H]1NCCc2c1[nH]c1ccc(O)cc21
Result: 12.9 nM
